Parameter: EC90. Scope: all listed entries.
# Subject of test: Nonstructural protein 5A (Hepatitis C virus) (UniProt Q5L478)
# Sequence (Q5L478 as listed by the source): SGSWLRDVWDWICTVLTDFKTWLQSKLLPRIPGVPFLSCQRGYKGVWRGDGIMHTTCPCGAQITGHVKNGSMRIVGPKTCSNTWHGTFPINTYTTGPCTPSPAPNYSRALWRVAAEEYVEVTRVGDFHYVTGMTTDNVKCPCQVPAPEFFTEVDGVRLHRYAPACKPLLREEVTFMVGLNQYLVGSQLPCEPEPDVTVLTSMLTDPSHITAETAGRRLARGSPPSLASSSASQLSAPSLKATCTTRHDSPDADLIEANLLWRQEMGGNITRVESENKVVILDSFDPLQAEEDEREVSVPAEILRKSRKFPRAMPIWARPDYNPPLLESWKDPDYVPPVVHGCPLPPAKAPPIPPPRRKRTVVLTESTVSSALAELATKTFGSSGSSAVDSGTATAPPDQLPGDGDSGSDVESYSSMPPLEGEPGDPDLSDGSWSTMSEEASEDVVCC
# Assay comment: Inhibition of HCV GT3a NS5A assessed as suppression of replicon RNA level by real-time PCR analysis
# Test parameters: Hepatitis C virus subtype 3a
# output: bare number, implied unit nM

Illustrative cases are given below, each with its answer.
>  <Compound>
COC(=O)N[C@H](C(=O)N1CCC[C@H]1c1ncc(-c2ccc3c(c2)cc2n3[C@H](c3ccccc3)Oc3cc(-c4cnc([C@@H]5CCCN5C(=O)[C@@H](NC(=O)OC)C(C)C)[nH]4)c(F)cc3-2)[nH]1)C(C)C

>  <Subject of test>
Nonstructural protein 5A (Hepatitis C virus) (UniProt Q5L478)

>  <Units text>
nM

>  <EC90>
1

$$$$
>  <Compound>
CCOc1cccc(C2Oc3cc(-c4cnc([C@@H]5CCCN5C(=O)[C@@H](NC(=O)OC)C(C)C)[nH]4)ccc3-c3cc4cc(-c5cnc([C@@H]6CCCN6C(=O)[C@@H](NC(=O)OC)C(C)C)[nH]5)ccc4n32)c1 (some centres undefined)

>  <Subject of test>
Nonstructural protein 5A (Hepatitis C virus) (UniProt Q5L478)

>  <Units text>
nM

>  <EC90>
0.2

$$$$
>  <Compound>
CCOc1cccc(C2Oc3cc(-c4cnc([C@@H]5C[C@@H](F)CN5C(=O)[C@@H](NC(=O)OC)C(C)C)[nH]4)cc(F)c3-c3cc4cc(-c5cnc([C@@H]6C[C@@H](F)CN6C(=O)[C@@H](NC(=O)OC)C(C)C)[nH]5)ccc4n32)c1 (some centres undefined)

>  <Subject of test>
Nonstructural protein 5A (Hepatitis C virus) (UniProt Q5L478)

>  <Units text>
nM

>  <EC90>
0.6

$$$$

Next up:
Q: Any idea what EC90 was measured for COC(=O)N[C@H](C(=O)N1CCC[C@H]1c1ncc(-c2cc(F)c3c(c2)OC(c2ccccc2)n2c-3cc3cc(-c4cnc([C@@H]5C[C@@H](F)CN5C(=O)[C@@H](NC(=O)OC)C(C)C)[nH]4)ccc32)[nH]1)C(C)C (mixture of isomers) ?
Result: 0.3
